- Target system: FGF receptor/BKL complex (human, UniProt Q86Z14 1-1044)
- Sequence (Q86Z14 whole entry, one chain of several): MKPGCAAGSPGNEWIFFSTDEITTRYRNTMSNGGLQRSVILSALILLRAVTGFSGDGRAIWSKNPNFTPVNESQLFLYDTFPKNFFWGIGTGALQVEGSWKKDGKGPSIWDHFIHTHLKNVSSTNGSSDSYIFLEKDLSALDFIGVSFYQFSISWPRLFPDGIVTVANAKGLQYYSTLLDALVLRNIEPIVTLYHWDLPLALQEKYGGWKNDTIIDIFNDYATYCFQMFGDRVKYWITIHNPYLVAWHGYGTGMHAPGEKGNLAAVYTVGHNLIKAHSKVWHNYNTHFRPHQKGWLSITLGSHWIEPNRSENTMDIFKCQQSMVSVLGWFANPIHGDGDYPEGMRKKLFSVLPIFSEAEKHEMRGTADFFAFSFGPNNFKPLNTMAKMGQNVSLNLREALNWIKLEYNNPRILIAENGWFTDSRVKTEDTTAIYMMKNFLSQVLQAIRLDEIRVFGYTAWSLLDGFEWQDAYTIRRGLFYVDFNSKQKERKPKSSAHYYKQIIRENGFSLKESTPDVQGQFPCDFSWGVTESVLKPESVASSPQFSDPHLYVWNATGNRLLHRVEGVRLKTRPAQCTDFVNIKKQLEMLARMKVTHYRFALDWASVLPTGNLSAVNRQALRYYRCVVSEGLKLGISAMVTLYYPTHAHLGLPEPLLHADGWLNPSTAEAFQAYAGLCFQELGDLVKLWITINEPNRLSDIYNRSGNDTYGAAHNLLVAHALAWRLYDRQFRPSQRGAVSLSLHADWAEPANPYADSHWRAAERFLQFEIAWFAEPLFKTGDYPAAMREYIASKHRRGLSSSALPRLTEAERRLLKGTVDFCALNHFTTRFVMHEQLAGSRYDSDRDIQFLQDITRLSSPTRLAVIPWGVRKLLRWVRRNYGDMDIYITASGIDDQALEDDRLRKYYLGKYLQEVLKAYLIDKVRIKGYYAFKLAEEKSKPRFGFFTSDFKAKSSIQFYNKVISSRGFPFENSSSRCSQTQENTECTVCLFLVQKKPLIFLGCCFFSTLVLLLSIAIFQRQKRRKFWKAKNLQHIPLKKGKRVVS
- Assay procedure: cell-based or functional assay
Property measured: FGF1 receptor potency [EC50] nM 0.1% HSA (nM)
Give bare numbers, in nM.

Example entries begin here.
S{Beta-27}-[2-[2-[[2-[2-[2-[[2-[2-[2-[[(4S)-4-carboxy-4-(17-carboxyheptadecanoyl-amino)butanoyl]amino]ethoxy]ethoxy]acetyl]amino]ethoxy]ethoxy]acetyl]amino]-eth … (ligand, Cys27 of the GLP-1 part (GLP-1(7-37) numbering; residue 21 of the chain) and Cys180 of the FGF21 part (FGF21(1-181) numbering; residue 228 of the chain) each S-alkylated with substituent Chem. 7) HGEGTFTSDVSSYLEEQAAKCFIAWLVKGGGGAQPGAQPGAQPGAQPAHPIPDSSPLLQFGGQVRQRYLYTDDAQQTEAHLEIREDGTVGGAADQSPESLLQLKALKPGVIQILGVKTSRFLCQRPDGALYGSLHFDPEACSFRELLLEDGYNVYQSEAHGLPLHLPGQKSPHRDPAPRGPARFLPLPGLPPALPEPPGILAPQPPDVGSSDPLSLVGPSQGRSPSYCS: 7.57
S{Beta-26}-[2-[2-[[2-[2-[2-[[2-[2-[2-[[(4S)-4-carboxy-4-(17-carboxyheptadecanoyl-amino)butanoyl]amino]ethoxy]ethoxy]acetyl]amino]ethoxy]ethoxy]acetyl]amino]-eth … (ligand, Cys26 of the GLP-1 part (GLP-1(7-37) numbering; residue 20 of the chain) S-alkylated with substituent Chem. 7) HGEGTFTSDVSSYLEEQAACEFIAWLVKGGGGAQPGAQPGAQPGAQPAHPIPDSSPLLQFGGQVRQRYLYTDDAQQTEAHLEIREDGTVGGAADQSPESLLQLKALKPGVIQILGVKTSRFLCQRPDGALYGSLHFDPEACSFRELLLEDGYNVYQSEAHGLPLHLPGQKSPHRDPAPRGPARFLPLPGLPPALPEPPGILAPQPPDVGSSDPLSLVGGSQGRSPSYAS: 0.51
S{Beta-27}-[2-[2-[[2-[2-[2-[[2-[2-[2-[[(4S)-4-carboxy-4-(17-carboxyheptadecanoyl-amino)butanoyl]amino]ethoxy]ethoxy]acetyl]amino]ethoxy]ethoxy]acetyl]amino]-eth … (ligand, Cys27 of the GLP-1 part (GLP-1(7-37) numbering; residue 21 of the chain) S-alkylated with substituent Chem. 7) HGEGTFTSDVSSYLEEQAAKCFIAWLVKGGGGAQPGAQPGAQPGAQPAHPIPDSSPLLQFGGQVRQRYLYTDDAQQTEAHLEIREDGTVGGAADQSPESLLQLKALKPGVIQILGVKTSRFLCQRPDGALYGSLHFDPEACSFRELLLEDGYNVYQSEAHGLPLHLPGQKSPHRDPAPRGPARFLPLPGLPPALPEPPGILAPQPPDVGSSDPLSLVGGSQGRSPSYES: 0.64

State the recorded FGF1 receptor potency [EC50] nM 0.1% HSA for every item in the following list.
1. [8G, 22E, 26R, 36G]GLP-1(7-37)-(GAQP)x2, … (ligand, Cys of the spacer (residue 40 of the chain) S-alkylated with substituent Chem. 7) HGEGTFTSDVSSYLEEQAAREFIAWLVKGGGGAQPGAQPCGAQPAHPIPDSSPLLQFGGQVRQRYLYTDDAQQTEAHLEIREDGTVGGAADQSPESLLQLKALKPGVIQILGVKTSRFLCQRPDGALYGSLHFDPEACSFRELLLEDGYNVYQSEAHGLPLHLPGQKSPHRDPAPRGPARFLPLPGLPPALPEPPGILAPQPPDVGSSDPLSLVGGSQGRSPSYAS
2. S{Beta-27}-[2-[2-[[2-[2-[2-[[2-[2-[2-[[(4S)-4-carboxy-4-(17-carboxyheptadecanoyl-amino)butanoyl]amino]ethoxy]ethoxy]acetyl]amino]ethoxy]ethoxy]acetyl]amino]-eth … (ligand, Cys27 of the GLP-1 part (GLP-1(7-37) numbering; residue 21 of the chain) S-alkylated with substituent Chem. 7) HGEGTFTSDVSSYLEEQAAKCFIAWLVKGGGGAQPGAQPGAQPGAQPGAQPGAQPGAQPGAQPAHPIPDSSPLLQFGGQVRQRYLYTDDAQQTEAHLEIREDGTVGGAADQSPESLLQLKALKPGVIQILGVKTSRFLCQRPDGALYGSLHFDPEACSFRELLLEDGYNVYQSEAHGLPLHLPGQKSPHRDPAPRGPARFLPLPGLPPALPEPPGILAPQPPDVGSSDPLSLVGGSQGRSPSYES

0.57
0.87
